biological target: human M1 receptor (Homo sapiens); assay: In vitro functional assay of muscarinic acetylcholine receptor activity (aequorin calcium flux, reversal of EC80 acetylcholine response); type: cell-based; details: CHO-K1 cells stably expressing human M1 receptor with aequorin; acetylcholine at EC80; calcium flux (luminescence); read-out: M1 IC50
Sequence (P11229 whole entry): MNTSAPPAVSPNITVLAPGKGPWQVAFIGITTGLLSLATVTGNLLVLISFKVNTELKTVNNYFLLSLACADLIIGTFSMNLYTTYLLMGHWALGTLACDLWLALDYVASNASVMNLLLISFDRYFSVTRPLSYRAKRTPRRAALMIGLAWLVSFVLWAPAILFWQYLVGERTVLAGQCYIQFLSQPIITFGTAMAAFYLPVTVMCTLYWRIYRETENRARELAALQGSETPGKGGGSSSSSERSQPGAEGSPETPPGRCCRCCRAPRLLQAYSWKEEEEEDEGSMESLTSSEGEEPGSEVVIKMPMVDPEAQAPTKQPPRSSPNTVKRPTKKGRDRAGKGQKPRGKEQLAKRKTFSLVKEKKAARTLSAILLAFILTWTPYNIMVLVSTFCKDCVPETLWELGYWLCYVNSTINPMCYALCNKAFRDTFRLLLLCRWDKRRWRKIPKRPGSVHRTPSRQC
ASSAY METRIC: IC50

Examples with answers:
Query string: Bench note: what IC50 did CC(NCC(=O)N1CC2CCC(C1)N2c1ccc(C#N)cn1)c1cccc2ncnn12 (racemic) show?
Result string: 10 to 100 nM

Query string: Value lookup for IC50; key = N#Cc1ccc(N2C3CCC2CN(C(=O)CNC2CCc4cc(F)cc(F)c42)C3)nc1 (racemic)
Result string: 100 to 1000 nM

Query string: Tell me the measured IC50 of N#Cc1ccc(N2C3CCC2CN(C(=O)COCC(F)(F)c2cccn4ncnc24)C3)nc1 , please.
Result string: < 10 nM

Query string: Report IC50 for COc1cc(C(F)(F)CCC(=O)N2C[C@@H]3C[C@H]2CN3c2ccc(C#N)cn2)ccn1 please.
Result string: 1000 to 10000 nM

Query string: Name the reported IC50 value associated with the compound CC(COCC(=O)N1CC2CCC(C1)N2c1ccc(C#N)cn1)c1ccccc1 (stereo in doubt)
Result string: 100 to 1000 nM

Query string: Any idea what its IC50 is? The compound is N#Cc1ccc(N2C3CCC2CN(C(=O)COC2(c4ccccc4F)CC2)C3)nc1
Result string: 10 to 100 nM

Query string: Give its IC50 value. Item: COc1ccnc(C(F)(F)CCC(=O)N2CC3CCC(C2)N3c2ccc(C#N)cn2)c1
Result string: < 10 nM

Query string: Returns the measured IC50 for the input compound. Input: COc1ccnc(C2(OCC(=O)N3CC4CCC(C3)N4c3ccc(C#N)cn3)CCC2)c1
Result string: < 10 nM

Query string: Requested field: IC50. Item: N#Cc1ccc(N2[C@@H]3CC[C@H]2CN(C(=O)CCNC2(c4ccc(F)c(F)c4)CCC2)C3)nc1
Result string: < 10 nM

Query string: What does the data say about its IC50? Entry: N#Cc1ccc(N2C3CCC2CN(C(=O)COC2(c4cncc(O)c4)CCC2)C3)nc1
Result string: < 10 nM

More entries:
Query string: Item N#Cc1ccc(N2C3CCC2CN(C(=O)COC2(c4ccc(F)cc4)COC2)C3)nc1 has what recorded IC50?
Result string: 100 to 1000 nM

Query string: Look up IC50: N#Cc1cnc(N2[C@@H]3CC[C@H]2CN(C(=O)CCNC2(c4ccc(F)c(F)c4)CC2)C3)nc1
Result string: 100 to 1000 nM

Origin of values: patent US12565501B2
